In this section, each of the compounds is paired with its reported inhibition.
assay: TNF-a-driven NF-kB reporter inhibitors, primary screen, selectivity assay for NOD1/NOD2 signaling inhibitor project, cell-based, HEK293T NF-kB-Luc, luminescence (AID 1852); conditions: TNF-a induced, 14 h, at 4 µM, hits give high values
In all, about 2,500 compounds went through this assay and about 1,100 (44%) were called active. So high a share suggests a set chosen from earlier hits. This is one part of the list.
All answers are understood in %, so give the number only.

Guide cases for inhibition, answers given:
[
  {
    "Chemical Structure": "CSC(=S)N/N=C/c1ccc(Br)cc1",
    "Units Text": "%",
    "Measurement": 3.9
  },
  {
    "Chemical Structure": "O=C(/C=C/c1ccc([N+](=O)[O-])cc1)Nc1cccc(C(=O)Nc2ccccc2C(=O)O)c1",
    "Units Text": "%",
    "Measurement": 65.5
  },
  {
    "Chemical Structure": "O=C(Nc1ccccc1C(=O)O)c1cc(S(=O)(=O)Nc2cccc(F)c2)ccc1Cl",
    "Units Text": "%",
    "Measurement": 58.9
  },
  {
    "Chemical Structure": "COc1ccc(Cn2c(O)c(C=Nc3ccccc3C(=O)O)c3ccccc3c2=O)cc1",
    "Units Text": "%",
    "Measurement": 69.6
  },
  {
    "Chemical Structure": "Cc1ccc(S(=O)(=O)/C(=C/Cl)NC(=O)c2ccccc2)cc1",
    "Units Text": "%",
    "Measurement": 11.6
  },
  {
    "Chemical Structure": "CCN(CC)S(=O)(=O)c1cccc(C(=O)c2c(C)cc3ccccn23)c1",
    "Units Text": "%",
    "Measurement": 27.9
  }
]

Request: inhibition lookup needed for COc1ccccc1NS(=O)(=O)c1cccc(-n2c(O)c(C=Nc3ccccc3C(=O)O)c3ccccc3c2=O)c1 , thanks.
Result: 69

Request: What inhibition value was documented for this compound, COc1ccc(-c2cc(C)no2)cc1S(=O)(=O)N1CCN(c2ccc([N+](=O)[O-])cc2)CC1 ?
Result: 44.5

Request: Endpoint output: inhibition of Cc1ccc2c(c1)CCCN2S(=O)(=O)c1cccc(C(=O)Nc2ccccc2C(=O)O)c1 . Value?
Result: 5.4

Request: Data request, read-out inhibition, for Cc1ccc(NC(=O)Nc2nnc(-c3ccncc3)s2)cc1
Result: 27.4
